Molecular target: T1, Cdc13OB34 (Candida glabrata, UniProt Q6FT40 401-753)
T1 sequence: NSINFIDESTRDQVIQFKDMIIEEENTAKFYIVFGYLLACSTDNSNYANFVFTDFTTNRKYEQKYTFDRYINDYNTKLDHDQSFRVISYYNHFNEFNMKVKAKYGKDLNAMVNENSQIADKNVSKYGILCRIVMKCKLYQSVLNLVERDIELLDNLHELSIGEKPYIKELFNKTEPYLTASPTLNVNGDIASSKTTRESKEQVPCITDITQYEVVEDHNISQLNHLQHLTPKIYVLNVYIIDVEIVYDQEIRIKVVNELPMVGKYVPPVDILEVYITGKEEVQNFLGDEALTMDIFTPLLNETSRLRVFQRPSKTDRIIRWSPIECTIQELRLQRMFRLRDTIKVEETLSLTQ
Assay: fluorescence polarization
ASSAY ENDPOINT: Kd (nM)

BINDER: TGTGGGGTCTGGGTGCTGTGGGGTCTGGGTGCTGTGGGGTCTGGGTGC (ssDNA) [6FAM-CgTelo]
ASSAY ENDPOINT: Kd
VAL: 299

The values you see were collected from paper PMC9881146.
